- system_under_test: α4β1 (VLA-4) as used in the competition ELISAs (UniProt P13612 34-970; P05556 21-728)
- test_method_notes: competition ELISA; integrin preincubated with test mAb, then murine HP1/2 as competing reagent
readout_name: pIC50
For clarity, pIC50 is expressed as the negative log10 of concentration in mol/L.

binder: H1L2 (antibody, V domains shown, also called Design H1 / Design L2) VH: EVQLVQSGAEVKKPGATVKISCKASGFNIKDTYMHWVQQAPGKGLEWMGRIDPASGDTKYDPKFQVRVTITADTSTDTAYMELSSLRSEDTAVYYCADGMWVSTGYALDFWGQGTLVTVSS VL: SIVMTQSPDSLAVSLGERATINCKASQSVTNDVAWYQQKPGQPPKLLIYYASNRYTGVPDRFSGSGYGTDFTLTISSLQAEDVAVYFCQQDYSSPYTFGQGTKVEIK
pIC50: 9.05
--
binder: Chimeric HP1/2 (antibody, human IgG1, V domains shown, also called chimerized HP1/2 antibody; chimeric mAb) VH: EVQLQQSGAELVKPGASVKLSCTASGFNIKDTYMHWVKQRPEQGLEWIGRIDPASGDTKYDPKFQVKATITADTSSNTAWLQLSSLTSEDTAVYYCADGMWVSTGYALDFWGQGTTVTVSS VL: SIVMTQTPKFLLVSAGDRVTITCKASQSVTNDVAWYQQKPGQSPKLLIYYASNRYTGVPDRFTGSGYGTDFTFTISTVQAEDLAVYFCQQDYSSPYTFGGGTKLEIK
pIC50: 8.97
--
binder: H1L3 (antibody, V domains shown, also called Design H1 / Design L3) VH: EVQLVQSGAEVKKPGATVKISCKASGFNIKDTYMHWVQQAPGKGLEWMGRIDPASGDTKYDPKFQVRVTITADTSTDTAYMELSSLRSEDTAVYYCADGMWVSTGYALDFWGQGTLVTVSS VL: SIVMTQSPDSLAVSLGERATINCKASQSVTNDVAWYQQKPGQPPKLLIYYASNRYTGVPDRFSGSGYGTDFTFTISSLQAEDVATYFCQQDYSSPYTFGQGTKVEIK
pIC50: 9.31

We now examine a further binder.
Exercise: Please give the measured pIC50 for this binder: H1L0 (antibody, V domains shown, also called Design H1 / Design L0) VH: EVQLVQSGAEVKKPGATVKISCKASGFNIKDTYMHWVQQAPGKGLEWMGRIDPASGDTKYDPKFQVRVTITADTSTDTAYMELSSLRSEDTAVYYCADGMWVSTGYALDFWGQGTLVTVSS VL: DIVMTQSPDSLAVSLGERATINCKASQSVTNDVAWYQQKPGQPPKLLIYYASNRYTGVPDRFSGSGSGTDFTLTISSLQAEDVAVYYCQQDYSSPYTFGQGTKVEIK
Solution: 8.73
